system.under.test: HLA-A*03:01
assay.protocol: IEDB peptide-MHC binding, purified MHC/competitive/radioactivity; filed as Kd, often an IC50 or EC50 that approximates it; bounds were set here for any values at or beyond the usual limits of such assays
conditions: source organism: Mammarenavirus machupoense
readout.kind: Kd (µM)
Report only the number, with the unit µM understood.

## Input Param item = CQFDHVNTLH ; retrieve measured Kd.
## Output 18.4

###

system.under.test: HLA-B*58:01
assay.protocol: IEDB peptide-MHC binding, purified MHC/direct/fluorescence; filed as Kd, often an IC50 or EC50 that approximates it; bounds were set here for any values at or beyond the usual limits of such assays
conditions: source organism: Shigella flexneri
readout.kind: pKd
To interpret pKd, take it as minus log10 of a concentration measured in moles per litre.

## Input I'd like to know its pKd. The sequence in question is LSSIGIPAY
## Output 6.75
